target: SARS-CoV-2 Main Protease (SARS-CoV-2)
Examples of compounds with documented IC50 follow.
ENDPOINT: IC50 (µM)

                            smiles_notation  endpoint  result_unit  reading_qualifier  measured_result
0  O=C(Cc1cccc(Cl)c1)Nc1cncc2cc(F)cc(Cl)c12      IC50           µM                  =            0.718
1        N#Cc1ccc(CC(=O)Nc2cncc3ccccc23)cc1      IC50           µM                  >             99.5
2    N#Cc1ncc(NC(=O)Cc2cccc(Cl)c2)c2ccccc12      IC50           µM                  =             65.9
3    CC(=O)NCc1cc(Cl)cc(CC(=O)Nc2cnccc2C)c1      IC50           µM                  =             41.3
4    Cn1cc(NC(=O)Cc2cccc(Cl)c2)c2ccccc2c1=O      IC50           µM                  >             99.5
5               O=C(Cc1cccc(Cl)c1)Nc1cccnc1      IC50           µM                  =             53.7

---

details: rat; plasma
ENDPOINT: recovery (%)

>>> print(df.to_string())
                                   molecule  result_unit  measured_result
0  O=C(Nc1cncc2ccccc12)[C@@H]1CCNc2cc(Cl)c(Cl)cc21 (stereo in doubt)            %             98.4
1  O=C(Nc1cncc2ccccc12)C1CCS(=O)(=O)c2ccc(Cl)cc21 (configuration not stated)            %               98

---

biological target: SARS-CoV-2 Main Protease (SARS-CoV-2)
ENDPOINT: IC50 (µM)

COMPOUND	SYSTEM_TESTED	ENDPOINT	RESULT_UNIT	READING_QUALIFIER	MEASURED_RESULT
C=CC(=O)N(c1ccc(C(C)(C)C)cc1)C(C(=O)NC(C)(C)C)c1cccnc1 (stereo not given)	SARS-CoV-2 Main Protease (SARS-CoV-2)	IC50	µM	>	99
O=C(NCC(=O)N1CCCC1c1nc2ccccc2[nH]1)C1CCCC1 (stereo not given)	SARS-CoV-2 Main Protease (SARS-CoV-2)	IC50	µM	>	99.5
O=C(Cc1cccc(Cl)c1)Nc1cncc2cc(C(F)F)ccc12	SARS-CoV-2 Main Protease (SARS-CoV-2)	IC50	µM	=	2.25
O=C(Nn1cnc2ccccc21)C(Cc1cccc(Cl)c1)c1ccc(N2CCOCC2)cc1 (stereo not given)	SARS-CoV-2 Main Protease (SARS-CoV-2)	IC50	µM	>	99.5
CNC(=O)CN1Cc2ccc(Cl)cc2[C@]2(CCN(c3cncc4c3CCCC4)C2=O)C1 (stereo in doubt)	SARS-CoV-2 Main Protease (SARS-CoV-2)	IC50	µM	>	99.5
CCCCc1nc(-c2nccn2Cc2ccoc2)c[nH]1	SARS-CoV-2 Main Protease (SARS-CoV-2)	IC50	µM	=	14.3
O=C1NCC(C(=O)Nc2cnn3c2CCCC3)c2cc(Cl)ccc21 (stereo not given)	SARS-CoV-2 Main Protease (SARS-CoV-2)	IC50	µM	=	30.5
COc1ccc(-c2cc(N)n(-c3cc(Cl)cc(CC(=O)Nc4cncc5ccccc45)c3)n2)cc1	SARS-CoV-2 Main Protease (SARS-CoV-2)	IC50	µM	=	2.71
CN(CCC#N)S(=O)(=O)N1Cc2ccc(Cl)cc2C2(CCN(c3cncc4ccccc34)C2=O)C1 (stereo not given)	SARS-CoV-2 Main Protease (SARS-CoV-2)	IC50	µM	=	0.613
CN(C)CCOc1ccc2cncc(NC(=O)C3CN(S(=O)(=O)CC4(C)CS(=O)(=O)C4)Cc4ccc(Cl)cc43)c2c1 (stereo not given)	SARS-CoV-2 Main Protease (SARS-CoV-2)	IC50	µM	=	0.125
CNC(=O)Nc1ccc(N(C(=O)c2cocn2)C(C(=O)NCCc2cccc(F)c2)c2cccnc2)cc1 (stereo not given)	SARS-CoV-2 Main Protease (SARS-CoV-2)	IC50	µM	>	99.5
O=C(Cc1cccc(Cl)c1)NC1C(=O)NCc2ccccc21 (stereo not given)	SARS-CoV-2 Main Protease (SARS-CoV-2)	IC50	µM	>	99.5
N#CC1(CS(=O)(=O)N2Cc3ccc(Cl)cc3C(C(=O)Nc3cncc4ccccc34)C2)CNC1 (stereo not given)	SARS-CoV-2 Main Protease (SARS-CoV-2)	IC50	µM	=	0.169
CC(C)(C)c1ccc(N(C(=O)c2cnc(C3CCOC3)s2)C(C(=O)NCCc2cccc(F)c2)c2cccnc2)cc1 (stereo not given)	SARS-CoV-2 Main Protease (SARS-CoV-2)	IC50	µM	>	99.5
N#CC1(CS(=O)(=O)N2Cc3ccc(Cl)cc3C(C(=O)Nc3cncc4cc(NS(=O)(=O)C5CC5)ccc34)C2)CC1 (stereo not given)	SARS-CoV-2 Main Protease (SARS-CoV-2)	IC50	µM	<	0.05
CNC(=O)N1CCc2ccc(Cl)cc2C1C(=O)Nc1cncc2ccccc12 (stereo not given)	SARS-CoV-2 Main Protease (SARS-CoV-2)	IC50	µM	=	2.47
Cc1noc2ncc(CNc3ccc(-c4nnnn4C)cc3)cc12	SARS-CoV-2 Main Protease (SARS-CoV-2)	IC50	µM	>	99.5
O=C(Cc1cc(Cl)cc(NCc2ccc(I)cc2)c1)Nc1cncc2ccccc12	SARS-CoV-2 Main Protease (SARS-CoV-2)	IC50	µM	=	4.37
CC(CCc1ccco1)NC(=O)Nc1cn(C)c(=O)c2ccccc12 (stereo not given)	SARS-CoV-2 Main Protease (SARS-CoV-2)	IC50	µM	=	44.5
O=C(Cc1cccc(Cl)c1)Nc1cncc2c1CCCC2	SARS-CoV-2 Main Protease (SARS-CoV-2)	IC50	µM	>	99.5
Cc1nnc(C2Cc3ccccc3CN2C(=O)CCl)o1 (stereo not given)	SARS-CoV-2 Main Protease (SARS-CoV-2)	IC50	µM	=	53.5
CC(=O)c1ccccc1C(=O)N(c1ccc(C(C)(C)C)cc1)C(C(=O)NCCc1cccc(F)c1)c1cccnc1 (stereo not given)	SARS-CoV-2 Main Protease (SARS-CoV-2)	IC50	µM	>	99.5
CC(NCc1cnc2ccccn12)c1nnc2ccccn12 (stereo not given)	SARS-CoV-2 Main Protease (SARS-CoV-2)	IC50	µM	>	99.5
Cn1ncc2c(NCc3ccc4cccnc4c3)ncnc21	SARS-CoV-2 Main Protease (SARS-CoV-2)	IC50	µM	>	99.5
Cc1noc(C)c1CCNC(=O)Nc1cn(CC(C)C)c(=O)c2ccccc12	SARS-CoV-2 Main Protease (SARS-CoV-2)	IC50	µM	=	27.7
NCc1cn(CC(=O)N(Cc2cscn2)c2ccc(-c3ccccc3)nc2)nn1	SARS-CoV-2 Main Protease (SARS-CoV-2)	IC50	µM	>	99.5
N#CC1(CS(=O)(=O)N2Cc3ccc(Cl)cc3[C@@H](C(=O)Nc3cncc4ccccc34)C2)CNC1 (stereo in doubt)	SARS-CoV-2 Main Protease (SARS-CoV-2)	IC50	µM	=	1.62
CN1Cc2ccc(Cl)cc2C(C(=O)Nc2cncc3ccccc23)C1 (stereo not given)	SARS-CoV-2 Main Protease (SARS-CoV-2)	IC50	µM	=	2.01
Cc1[nH]ncc1CC(=O)Nc1cccc(Cl)c1	SARS-CoV-2 Main Protease (SARS-CoV-2)	IC50	µM	=	54.6
CC(C)(C)c1ccc(N(C(=O)c2nc3ncc(CCO)cn3n2)C(C(=O)NCCc2cccc(F)c2)c2cccnc2)cc1 (stereo not given)	SARS-CoV-2 Main Protease (SARS-CoV-2)	IC50	µM	>	99.5
N#Cc1ncc(Br)cn1	SARS-CoV-2 Main Protease (SARS-CoV-2)	IC50	µM	>	99.5
O=C(Cc1cccc(Cl)c1)Nc1cncc2c1NCCC2	SARS-CoV-2 Main Protease (SARS-CoV-2)	IC50	µM	=	38
O=C(NCCc1cccc(F)c1)C(c1cccnc1)N(C(=O)c1cocn1)C1CCC2OCCC2C1 (stereo not given)	SARS-CoV-2 Main Protease (SARS-CoV-2)	IC50	µM	>	99.5
C[C@H](C/C=C/C(C)(C)O)[C@H]1CC[C@@]2(C)[C@@H]3C=C[C@]45OC(O)[C@@]3(CC[C@]12C)[C@@H]4CC[C@H](O[C@@H]1O[C@H](CO)[C@@H](O)[C@H](O)[C@H]1O)C5(C)C (stereo in doubt)	SARS-CoV-2 Main Protease (SARS-CoV-2)	IC50	µM	>	99.5
O=C(Cc1cc(Cl)cc(Nc2ccc(-n3ccnc3)cc2)c1)Nc1cncc2ccccc12	SARS-CoV-2 Main Protease (SARS-CoV-2)	IC50	µM	=	2.46
O=C1CCCN(S(=O)(=O)c2cccc(F)c2)CC1	SARS-CoV-2 Main Protease (SARS-CoV-2)	IC50	µM	>	99.5
O=C(Cc1cc(Cl)cc(Nc2ncc(C(F)(F)F)cc2Cl)c1)Nc1cncc2ccccc12	SARS-CoV-2 Main Protease (SARS-CoV-2)	IC50	µM	=	1.7
CN(CCO)C1CCN(C(=O)CC2(C(=O)Nc3cncc4ccccc34)CCOc3ccc(Cl)cc32)CC1 (stereo not given)	SARS-CoV-2 Main Protease (SARS-CoV-2)	IC50	µM	=	37.6
Cc1cc(NC(=O)C2CCOc3ccc(Cl)cc32)ncc1N (stereo not given)	SARS-CoV-2 Main Protease (SARS-CoV-2)	IC50	µM	>	99.5
Cc1ccccc1NC(=O)CC1SC(=O)N(c2ccccc2)C1=O (stereo not given)	SARS-CoV-2 Main Protease (SARS-CoV-2)	IC50	µM	=	0.443

Where do the numbers come from? From the COVID Moonshot data (paper PMC7615835).
